Tested on: UO-31
Measurement protocol: NCI tumour cell line growth inhibition, 48 h
Active and inactive are the calls of the source. No stated cut-off is given here; in the data, active = GI50 up to about 1.1 µM and inactive = higher.
Entries and their GI50 values follow.

Request: Return GI50 (reported value) for this compound: "O=C1CCCC(=O)N1n1c(Cc2ccccc2)n[nH]c1=O"
Response: > 100 µM (inactive)

Request: Return GI50 (reported value) for this compound: "O=c1sc(-c2nc3ccccc3[nH]2)c(/N=C/c2ccccc2)n1-c1ccccc1"
Response: > 100 µM (inactive)

Request: Return GI50 (reported value) for this compound: "Cc1cc(C)nc(NS(=O)(=O)c2ccc(Nc3c4ccccc4nc4c(C(=O)NC(CO)(CO)CO)cccc34)cc2)n1"
Response: 85.1 µM (inactive)

Request: Return GI50 (reported value) for this compound: "Cn1c(-c2ccco2)ccc1-c1ccc(C=O)o1"
Response: 46.7 µM (inactive)

Request: Return GI50 (reported value) for this compound: "C/C(=N\NC(=S)N1CCCCCC1)c1cccc2cccnc12"
Response: 1.94 µM (inactive)
